# Target system: recombinant PRL-1 (Homo sapiens)
# Construct: 6xHis (N, cleaved yes); made in house; host or cells: E. coli One Shot BL21 Star
# Sequence (Q93096 1-173): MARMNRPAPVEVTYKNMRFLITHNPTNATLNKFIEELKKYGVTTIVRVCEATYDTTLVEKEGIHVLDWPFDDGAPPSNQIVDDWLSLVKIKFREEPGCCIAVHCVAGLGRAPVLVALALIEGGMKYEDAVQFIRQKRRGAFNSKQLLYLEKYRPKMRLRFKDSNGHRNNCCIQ
# Procedure summary: In vitro phosphatase assay (DiFMUP hydrolysis), PRL-1; further: test concentration or dose not given here
# Format: biochemical
# Condition label: FDA-approved drug screen; compared to DMSO
Structures can show the parent of a compound that is named as a salt.
Please go through the items and note down their % Phosphatase Activity (compared to DMSO) PRL-1.
One number for each entry, in %.

CO[C@H]1/C=C/O[C@@]2(C)Oc3c(C)c(O)c4c(O)c(c5c(nc6cc(C)ccn65)c4c3C2=O)NC(=O)/C(C)=C\C=C\[C@H](C)[C@H](O)[C@@H](C)[C@@H](O)[C@@H](C)[C@H](OC(C)=O)[C@@H]1C	64
C[C@]12CC[C@H](O)CC1=CC[C@@H]1[C@@H]2CC[C@]2(C)C(n3cnc4ccccc43)=CC[C@@H]12	90
CO[C@@]1(NC(=O)C(C(=O)O)c2ccc(O)cc2)C(=O)N2C(C(=O)O)=C(CSc3nnnn3C)CO[C@@H]21 (stereo partly shown) [Moxalactam Disodium]	88
Nc1nc(NC2CC2)c2ncn([C@H]3C=C[C@@H](CO)C3)c2n1 [Abacavir sulfate]	88

Give measured % Phosphatase Activity (compared to DMSO) PRL-1 for every item shown.
1. O=C(O)c1ccc(-n2nc(-c3ccccc3O)nc2-c2ccccc2O)cc1
2. COc1cc(/C=C/C(=O)N2CCN(CC(=O)N3CCCC3)CC2)cc(OC)c1OC.O=C(O)/C=C\C(=O)O [Cinepazide maleate]
3. CC(NC(C)(C)C)C(=O)c1cccc(Cl)c1.Cl (stereo not shown) [Amfebutamone HCl]

Result:
108
112
102

====

# Target system: recombinant PRL-2 (Homo sapiens, UniProt Q12974)
# Construct: 6xHis (N, cleaved yes); made in house; host or cells: E. coli One Shot BL21 Star
# Sequence (Q12974 whole entry): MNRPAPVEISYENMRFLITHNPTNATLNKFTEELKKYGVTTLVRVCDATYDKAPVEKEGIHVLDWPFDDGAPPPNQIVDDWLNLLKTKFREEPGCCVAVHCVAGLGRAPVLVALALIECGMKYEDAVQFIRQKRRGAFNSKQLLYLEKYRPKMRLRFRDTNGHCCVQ
# Procedure summary: In vitro phosphatase assay (DiFMUP hydrolysis), PRL-2
# Format: biochemical
# Condition label: FDA-approved drug screen; compared to DMSO
Readout kind: % Phosphatase Activity (compared to DMSO) PRL-2
Respond with a number, then the unit of measure.

Example cases with answers are listed next.
CCCNS(=O)(=O)Nc1ncnc(OCCOc2ncc(Br)cn2)c1-c1ccc(Br)cc1 [Macitentan]	75%
O=C1c2ccccc2C(=O)C1c1ccccc1 [Phenindione]	100%

Please go through the list and note % Phosphatase Activity (compared to DMSO) PRL-2 for each molecule.
1. CCOC(=O)[C@H](CCc1ccccc1)N[C@H]1CCCN2CCC[C@@H](C(=O)O)N2C1=O [Cilazapril Monohydrate]
2. CCOc1cc(CC(=O)N[C@@H](CC(C)C)c2ccccc2N2CCCCC2)ccc1C(=O)O [Repaglinide]
3. COc1ccccc1Oc1c(NS(=O)(=O)c2ccc(C(C)(C)C)cc2)nc(-c2ncccn2)nc1OCCO [Bosentan Hydrate]
4. CC(=O)OCC(=O)[C@@]1(O)CC[C@H]2[C@@H]3CCC4=CC(=O)CC[C@]4(C)[C@H]3C(=O)C[C@@]21C [Cortisone acetate]
5. CC[C@@H]1/C=C(\C)C[C@H](C)C[C@H](OC)[C@H]2O[C@@](O)(C(=O)C(=O)N3CCCC[C@H]3C(=O)O[C@H](/C(C)=C/[C@@H]3CC[C@H](Cl)[C@H](OC)C3)[C@H](C)[C@@H](O)CC1=O)[C@H](C)C[C@@H]2OC [Pimecrolimus]

Result:
1. 111%
2. 81%
3. 96%
4. 94%
5. 73%

====

# Target system: recombinant PRL-2 (Homo sapiens, UniProt Q12974)
# Construct: 6xHis (N, cleaved yes); made in house; host or cells: E. coli One Shot BL21 Star
# Procedure summary: In vitro phosphatase assay (DiFMUP hydrolysis), PRL-2
# Format: biochemical
# Condition label: FDA-approved drug screen; activity compared to DMSO
Readout kind: % Phosphatase Activity (compared to DMSO) PRL-2 (%)
Answers are plain numbers, in %.

Cc1ccc(C(=O)c2cc(O)c(O)c([N+](=O)[O-])c2)cc1 [Tolcapone]	89
CC[C@@H]1C(=O)N(C)c2cnc(Nc3ccc(C(=O)N[C@H]4CC[C@H](N5CCN(CC6CC6)CC5)CC4)cc3OC)nc2N1C(C)C [Volasertib (BI 6727)]	112
C[C@]12CC[C@H]3[C@@H](CC[C@@]45O[C@@H]4C(O)=C(C#N)C[C@]35C)[C@@H]1CC[C@@H]2O [Trilostane]	110
C[N+]1(C)[C@@H]2C[C@@H](OC(=O)C(O)(c3cccs3)c3cccs3)C[C@H]1[C@@H]1O[C@@H]12 [Tiotropium Bromide hydrate]	115
CC(C(=O)O)c1ccc2c(c1)CC(=O)c1ccccc1S2 (centres unmarked) [Zaltoprofen]	113

Can you give me % Phosphatase Activity (compared to DMSO) PRL-2 for all of these, one by one?
1. CC1=C(/C=C/C(C)=C/C=C/C(C)=C/C(=O)O)C(C)(C)CCC1 [Tretinoin]
2. CSc1nc2cc(Cl)c(Oc3cccc(Cl)c3Cl)cc2[nH]1 [Triclabendazole]

Result:
1. 77
2. 91

Problem: For the compound shown here, CC1(O)CCC(C(C)(C)O)CC1.O (centres unmarked) [Terpin (hydrate)] , give the reported % Phosphatase Activity (compared to DMSO) PRL-2.
Result: 92

====

# Target system: recombinant PRL-2 (Homo sapiens, UniProt Q12974)
# Construct: 6xHis (N, cleaved yes); made in house; host or cells: E. coli One Shot BL21 Star
# Procedure summary: In vitro phosphatase assay (DiFMUP hydrolysis), PRL-2
# Assay type: biochemical
# Condition label: FDA-approved drug screen; compared to DMSO
Would you kindly list % Phosphatase Activity (compared to DMSO) PRL-2 for each of these compounds?
Answers are plain numbers, in %.

CN(C)CCc1c[nH]c2ccc(CS(=O)(=O)N3CCCC3)cc12.O=C(O)CC(O)C(=O)O [Almotriptan Malate]	114
CC(=O)[C@H]1CC[C@H]2[C@@H]3CCC4=CC(=O)CC[C@]4(C)[C@H]3CC[C@]12C	96
CN1CCN(C2=Nc3cc(Cl)ccc3Nc3ccccc32)CC1	95
Cc1nnc(C(=O)NC(C)(C)c2nc(C(=O)NCc3ccc(F)cc3)c(O)c(=O)n2C)o1	105
CNC1CCCN(c2c(F)cc3c(=O)c(C(=O)O)cn(C4CC4)c3c2OC)C1 (stereo not shown)	411

Consider the following items and state reported % Phosphatase Activity (compared to DMSO) PRL-2 for each.
1. CCOC(=O)C1=C(COCCN)NC(C)=C(C(=O)OC)C1c1ccccc1Cl.O=S(=O)(O)c1ccccc1 (stereo not shown) [Amlodipine besylate (Norvasc)]
2. CC(C)(O)c1ccccc1CC[C@@H](SCC1(CC(=O)O)CC1)c1cccc(/C=C/c2ccc3ccc(Cl)cc3n2)c1 [Montelukast Sodium]

Result:
1. 174
2. 161

====

# Target system: recombinant PRL-2 (Homo sapiens)
# Construct: 6xHis (N, cleaved yes); made in house; host or cells: E. coli One Shot BL21 Star
# Procedure summary: In vitro phosphatase assay (DiFMUP hydrolysis), PRL-2
# Type: biochemical
# Condition label: FDA-approved drug screen; activity compared to DMSO
Structures can show the parent of a compound that is named as a salt.
Readout kind: % Phosphatase Activity (compared to DMSO) PRL-2 (%)
One number for each entry, in %.

Examples from the recorded data:
Cc1ccc(-n2nccn2)c(C(=O)N2CCN(c3nc4cc(Cl)ccc4o3)CC[C@H]2C)c1 [Suvorexant (MK-4305)]	78
CN(C)[C@@H]1C(O)=C(C(N)=O)C(=O)[C@@]2(O)C(O)=C3C(=O)c4c(O)cccc4[C@@](C)(O)[C@H]3C[C@@H]12 [Tetracycline HCl]	86
CC(=O)NS(=O)(=O)c1ccc(N)cc1 [Sulfacetamide Sodium]	109

Problem: Enter reported % Phosphatase Activity (compared to DMSO) PRL-2 observed with recombinant PRL-2 (Homo sapiens) for Cn1c(=O)c2[nH]cnc2n(C)c1=O [Theophylline]
Result: 98

====

Can you tell me % Phosphatase Activity (compared to DMSO) PRL-2 for the items I'm about to list?
# Target system: recombinant PRL-2 (Homo sapiens)
# Construct: 6xHis (N, cleaved yes); made in house; host or cells: E. coli One Shot BL21 Star
# Procedure summary: In vitro phosphatase assay (DiFMUP hydrolysis), PRL-2;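 further: PRL-2 activity read as DiFMUP hydrolysis after 20 min at room temperature with drug, enzyme first pre-reduced at 4 °C for 20 min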
# Format: biochemical
# Condition label: FDA-approved drug screen; compared to DMSO
Structures can show the parent of a compound that is named as a salt.
Give bare numbers, in %.

Example results:
COCCCN1CCC(NC(=O)c2cc(Cl)c(N)c3c2OCC3)CC1 [Prucalopride]	113
Cc1ncc(CO)c(CO)c1O [Pyridoxine HCl]	102
[O-][n+]1cccc(CO)c1 [Mepiroxol]	112
C[C@]12CC[C@@H]3c4ccc(O)cc4CC[C@H]3[C@@H]1C[C@@H](O)[C@@H]2O	111
O=C(O)/C=C/c1ccc(Cn2ccnc2)cc1	101
C=CCNC(N)=S	121
Clc1ccc(C(Cn2ccnc2)OCc2ccc(Sc3ccccc3)cc2)c(Cl)c1 (stereo not drawn) [Fenticonazole Nitrate]	117
Oc1c(I)cc(Cl)c2cccnc12 [5-Chloro-8-hydroxy-7-iodoquinoline]	90

// input: 8 compounds below; output: % Phosphatase Activity (compared to DMSO) PRL-2 for each
1. CCc1nc(N)nc(N)c1-c1ccc(Cl)cc1
2. O=C1C(O)=C([C@H]2CC[C@H](c3ccc(Cl)cc3)CC2)C(=O)c2ccccc21
3. CCOC(=O)[C@H](CCc1ccccc1)N[C@@H](C)C(=O)N1Cc2ccccc2C[C@H]1C(=O)O [Quinapril HCl]
4. O=C(c1ccc(F)c(F)c1Nc1ccc(I)cc1F)N1CC(O)([C@@H]2CCCCN2)C1
5. OC1(c2ccc(Cl)c(C(F)(F)F)c2)CCN(CCCC(c2ccc(F)cc2)c2ccc(F)cc2)CC1
6. CC1=NN(c2ccccc2)C(=O)C1
7. C#C[C@]1(O)CC[C@H]2[C@@H]3CCc4cc(OC)ccc4[C@H]3CC[C@@]21C
8. C[N+]1(C)CCC(OC(=O)C(O)(c2ccccc2)C2CCCC2)C1 (stereo not drawn) [Glycopyrrolate]

Result:
1: 109; 2: 88; 3: 106; 4: 97; 5: 128; 6: 82; 7: 99; 8: 101

I need % Phosphatase Activity (compared to DMSO) PRL-2 for every entry listed below, if you could help.
1. C[C@@H]1CCO[C@H]2Cn3cc(C(=O)NCc4ccc(F)cc4F)c(=O)c(O)c3C(=O)N12
2. COC1=CC(=O)C[C@@H](C)[C@]12Oc1c(Cl)c(OC)cc(OC)c1C2=O

Result:
[101, 125]
